The following molecules are listed with their measured pIC50 values.
SYSTEM TESTED: Renin (Homo sapiens)
Sequence (P00797 whole entry): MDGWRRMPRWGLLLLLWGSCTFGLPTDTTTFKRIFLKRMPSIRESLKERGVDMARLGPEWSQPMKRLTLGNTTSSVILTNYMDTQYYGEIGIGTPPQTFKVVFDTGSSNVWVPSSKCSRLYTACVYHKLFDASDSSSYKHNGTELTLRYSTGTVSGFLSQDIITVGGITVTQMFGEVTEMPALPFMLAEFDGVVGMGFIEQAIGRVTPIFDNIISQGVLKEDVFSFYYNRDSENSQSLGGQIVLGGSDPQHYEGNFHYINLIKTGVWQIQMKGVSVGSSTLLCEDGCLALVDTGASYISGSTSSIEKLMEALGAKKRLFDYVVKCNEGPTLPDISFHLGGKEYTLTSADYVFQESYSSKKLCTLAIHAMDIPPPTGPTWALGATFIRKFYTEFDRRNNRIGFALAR
PROCEDURE SUMMARY: Inhibition of human plasma renin
Please express pIC50 as -log10 of the molar concentration.

>>> numeric_value("CC(C)(C)S(=O)(=O)[C@@H](Cc1ccccc1)C(=O)N[C@@H](Cc1c[nH]cn1)C(=O)N[C@@H](CC1CCCCC1)[C@@H](O)CS(=O)(=O)CC(=O)NCCN1CCOCC1")
8.14
>>> numeric_value("CC(C)(C)OC(=O)N[C@@H](Cc1ccccc1)C(=O)N[C@@H](Cc1cnc[nH]1)C(=O)N[C@@H](CC1CCCCC1)[C@@H](O)C[S+]([O-])CC(=O)NCCN1CCOCC1 (stereo not given in full)")
7.72
>>> numeric_value("CC(C)(C)OC(=O)N[C@@H](Cc1ccccc1)C(=O)N[C@@H](Cc1cnc[nH]1)C(=O)N[C@@H](CC1CCCCC1)[C@@H](O)CSCC(=O)NCCN1CCOCC1")
7.40
>>> numeric_value("CC(C)(C)OC(=O)N[C@@H](Cc1ccccc1)C(=O)N[C@@H](Cc1c[nH]cn1)C(=O)N[C@@H](CC1CCCCC1)[C@@H](O)CS(=O)(=O)CC(=O)NC1CCN(Cc2ccccc2)CC1")
7.47

From here, focus on the item given below.
Q) For the molecule CC(C)CC(C(=O)NCCN1CCOCC1)[S+]([O-])C[C@H](O)[C@H](CC1CCCCC1)NC(=O)[C@H](Cc1cnc[nH]1)NC(=O)[C@H](Cc1ccccc1)NC(=O)OC(C)(C)C (stereo not given in full) , give its measured pIC50 value.
A) 7.06

* * *

SYSTEM TESTED: Renin (Homo sapiens, UniProt P00797)
PROCEDURE SUMMARY: Inhibition of human plasma renin
pIC50: −log10 of the molar value.
Lab note: compare pIC50 against 8. Equal or greater, write rule met. Smaller, write rule not met.

>>> classification("CC(C)CC(SC[C@H](O)[C@H](CC1CCCCC1)NC(=O)[C@H](Cc1cnc[nH]1)NC(=O)[C@H](Cc1ccccc1)NC(=O)OC(C)(C)C)C(=O)NCCN1CCOCC1 (some centres not stated)")
"rule not met"
>>> classification("CC(C)(C)OC(=O)N[C@@H](Cc1ccccc1)C(=O)N[C@@H](Cc1c[nH]cn1)C(=O)N[C@@H](CC1CCCCC1)[C@@H](O)CS(=O)(=O)CC(=O)NC1C[N+]2([O-])CCC1CC2 (some centres not stated)")
"rule met"
>>> classification("CC(C)(C)OC(=O)N[C@@H](Cc1ccccc1)C(=O)N[C@@H](Cc1c[nH]cn1)C(=O)N[C@@H](CC1CCCCC1)[C@@H](O)CSCC(=O)NC1CN2CCC1CC2 (some centres not stated)")
"rule not met"

Q) Given the entry CC(C)(C)OC(=O)N[C@@H](Cc1ccccc1)C(=O)N[C@@H](Cc1cnc[nH]1)C(=O)N[C@@H](CC1CCCCC1)[C@@H](O)CSCC(=O)NCc1ccncc1 , answer whether its pIC50 meets or surpasses 8.
A) rule not met

Q) // inclusive: pIC50 at least 8? input: CC(C)CC(C(=O)NCCN1CCOCC1)S(=O)(=O)C[C@H](O)[C@H](CC1CCCCC1)NC(=O)[C@H](Cc1c[nH]cn1)NC(=O)[C@H](Cc1ccccc1)NC(=O)OC(C)(C)C (some centres not stated)
A) rule not met

Q) Is it the case that CN1CCN(C(=O)CS(=O)(=O)C[C@H](O)[C@H](CC2CCCCC2)NC(=O)[C@H](Cc2c[nH]cn2)NC(=O)[C@H](Cc2ccccc2)NC(=O)OC(C)(C)C)CC1 has pIC50 reaching or exceeding 8?
A) rule not met

Source listed as ChEMBL document CHEMBL1125495.
